Biological target: human V1a receptor (Homo sapiens, UniProt P37288)
Sequence (P37288 whole entry): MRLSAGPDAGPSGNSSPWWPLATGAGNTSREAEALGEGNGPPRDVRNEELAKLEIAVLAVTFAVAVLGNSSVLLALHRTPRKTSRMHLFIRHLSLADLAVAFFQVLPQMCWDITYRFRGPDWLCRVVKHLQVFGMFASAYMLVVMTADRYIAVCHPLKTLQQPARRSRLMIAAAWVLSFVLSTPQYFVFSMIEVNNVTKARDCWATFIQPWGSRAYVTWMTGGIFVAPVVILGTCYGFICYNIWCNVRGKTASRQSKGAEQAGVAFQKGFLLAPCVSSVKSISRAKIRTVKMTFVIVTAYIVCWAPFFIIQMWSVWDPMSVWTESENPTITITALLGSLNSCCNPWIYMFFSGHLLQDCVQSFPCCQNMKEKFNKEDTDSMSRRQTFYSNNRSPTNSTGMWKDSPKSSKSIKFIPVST
Assay: V1a binding assay (3H-AVP displacement, HEK-293 membranes)
Design: expressed in transfected cells; host or cells: HEK-293 (membranes)
pIC50: −log10 of the molar value.
Measurement Name: pIC50

Mol Smiles: O=c1n(CCCN2CCCCC2)c2ccccc2n1C1CCN(C(=S)NCCCc2ccccc2)CC1
Tgt: human V1a receptor (Homo sapiens, UniProt P37288)
Measurement Name: pIC50
Quantitative Result: 7.16

[A] O=C(NC(c1ccccc1)c1ccccc1)N1CCC(n2c(=O)n(CCCN3CCCC3)c3ccccc32)CC1
[B] O=c1n(CCCC2CCCCC2)c2ccccc2n1C1CCN(C(=S)NC(c2ccccc2)c2ccccc2)CC1
[C] O=c1[nH]c2ccccc2n1C1CCN(C(=S)NCc2cccnc2)CC1
INPUT: Order these by pIC50, descending, and give the full ranking. Answer with the labels in sequence, matching the requested order.
OUTPUT: A, B, C

[A] O=c1n(CCCN2CCCCC2)c2ccccc2n1C1CCN(C(=S)Nc2ccccc2-c2ccccc2)CC1
[B] CN1CCN(CCCn2c(=O)n(C3CCN(C(=O)NC(c4ccccc4)c4ccccc4)CC3)c3ccccc32)CC1
INPUT: Just tell me: smaller pIC50 value, A or B ? Answer = label.
OUTPUT: B
(B: 6.55, A: 6.97)

* * *

Target: human V1a receptor (Homo sapiens, UniProt P37288)
Test: V1a binding assay (3H-AVP displacement, HEK-293 membranes)
Parameters: expressed in transfected cells; host or cells: HEK-293 (membranes)
Measurement Name: IC50 (µM)

Below, each entry is followed by its recorded IC50 result.
Compound: O=c1[nH]c2ccccc2n1C1CCN(C(=S)NC(c2ccccc2)c2ccccc2)CC1
Endpoint Unit: µM
IC50: 0.59
//
Compound: COc1cccc(CNC(=S)N2CCC(n3c(=O)n(CCCN4CCCC4)c4ccccc43)CC2)c1OC
Endpoint Unit: µM
IC50: 0.43
//
Compound: CC(NC(=S)N1CCC(n2c(=O)n(CCCN3CCCCC3)c3ccccc32)CC1)c1ccc(F)cc1 (stereo not drawn)
Endpoint Unit: µM
IC50: 0.091
//
Compound: CCC1CCN(CCCn2c(=O)n(C3CCN(C(=S)NC(c4ccccc4)c4ccccc4)CC3)c3ccccc32)C(C)C1 (stereo not drawn)
Endpoint Unit: µM
IC50: 0.067

[a] NCCCn1c(=O)n(C2CCN(C(=O)NC(c3ccccc3)c3ccccc3)CC2)c2ccccc21
[b] O=C(Nc1ccccc1-c1ccccc1)N1CCC(n2c(=O)n(CCCN3CCCCC3)c3ccccc32)CC1
INPUT: Hi, I'm comparing a with b and wondering which one has the bigger number for IC50. Any idea? Return value: the label identifying the chosen record.
OUTPUT: b

* * *

Biological target: human V2 receptor (Homo sapiens, UniProt P30518)
Sequence (P30518 whole entry): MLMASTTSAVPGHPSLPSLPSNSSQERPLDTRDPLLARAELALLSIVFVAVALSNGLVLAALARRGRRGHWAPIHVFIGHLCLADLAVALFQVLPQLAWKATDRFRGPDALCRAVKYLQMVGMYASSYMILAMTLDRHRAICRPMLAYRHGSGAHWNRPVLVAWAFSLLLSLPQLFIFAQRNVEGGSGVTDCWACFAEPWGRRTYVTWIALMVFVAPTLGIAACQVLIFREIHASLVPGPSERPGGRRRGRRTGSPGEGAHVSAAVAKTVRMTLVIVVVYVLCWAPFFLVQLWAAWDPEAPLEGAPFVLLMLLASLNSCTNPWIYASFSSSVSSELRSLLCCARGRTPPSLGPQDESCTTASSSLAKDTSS
Test: V2 binding assay (3H-AVP displacement, HEK-293 membranes)
Parameters: expressed in transfected cells; host or cells: HEK-293 (membranes)
Settings: 1.0 μM compound; read-out: V2@1.0, % Inh
Measurement Name: inhibition at 1 µM (%)

The examples below pair each entry with its known result.
Molecule: CCOC(=O)CCn1c(=O)n(C2CCN(C(=S)NC(c3ccccc3)c3ccccc3)CC2)c2ccccc21 [Compound 60]
Tgt: human V2 receptor (Homo sapiens, UniProt P30518)
inhibition at 1 µM (%): 0
//
Molecule: NC(=O)C(Cc1ccccc1)NC(=S)N1CCC(n2c(=O)[nH]c3ccccc32)CC1 (stereo not shown) [Compound 47]
Tgt: human V2 receptor (Homo sapiens, UniProt P30518)
inhibition at 1 µM (%): 14
//
Molecule: O=c1[nH]c2ccccc2n1C1CCN(C(=S)NCc2ccccc2)CC1 [Compound 11]
Tgt: human V2 receptor (Homo sapiens, UniProt P30518)
inhibition at 1 µM (%): 3
//
Molecule: O=c1[nH]c2ccccc2n1C1CCN(C(=S)NC(c2ccccc2)c2ccc(Cl)cc2)CC1 (stereo not shown) [Compound 34]
Tgt: human V2 receptor (Homo sapiens, UniProt P30518)
inhibition at 1 µM (%): 21
//
Molecule: O=c1n(CCCC2CCCCC2)c2ccccc2n1C1CCN(C(=S)NC(c2ccccc2)c2ccccc2)CC1 [Compound 134]
Tgt: human V2 receptor (Homo sapiens, UniProt P30518)
inhibition at 1 µM (%): 0

[a] NC(=O)CCn1c(=O)n(C2CCN(C(=S)NC(c3ccccc3)c3ccccc3)CC2)c2ccccc21 [Compound 69]
[b] CN1CCCC1CCn1c(=O)n(C2CCN(C(=O)NC(c3ccccc3)c3ccccc3)CC2)c2ccccc21 (stereo not shown) [Compound 94]
[c] CC(=O)NCCNC(=O)C(Cc1ccccc1)NC(=S)N1CCC(n2c(=O)[nH]c3ccccc32)CC1 (stereo not shown) [Compound 44]
INPUT: Arrange the 3 molecules by rising inhibition at 1 µM, starting with the smallest. Put the labels in the requested order and write them down.
OUTPUT: a, c, b

[P] NCCCn1c(=O)n(C2CCN(C(=S)NC(c3ccccc3)c3ccccc3)CC2)c2cc(Cl)c(Cl)cc21 [Compound 67]
[Q] O=c1[nH]c2ccccc2n1C1CCN(C(=S)NCc2ccc(Cl)cc2Cl)CC1 [Compound 17]
INPUT: Please compare: P and Q . Report which one has the smaller inhibition at 1 µM value. Identify your pick by its label.
OUTPUT: P
(P: 0%, Q: 14%)
